Tested on: HT29 RNF43 G659fs (RNF43 659mut, CRISPR-edited)
Experimental Protocol: cell viability activity relative to DMSO (negative = inhibition); higher = more viable cells (less growth inhibition)
Condition Context: 5 µM; 96 h
// classify(record): look up cell viability activity in ranges LOW (below -90%), MID (-90% to below -40%), HIGH (-40% or more)

Some entries whose results are on file:
CC(=O)N(O)CCCCCNC(=O)CCC(=O)N(O)CCCCCNC(=O)CCC(=O)N(O)CCCCCN : MID
COc1ccc(S(=O)(=O)N(C(C)=O)c2ccccc2/C=C/c2cc[n+]([O-])cc2)cc1 : MID
C[n+]1cc2c3c(ccc2c2ccc4cc5c(cc4c21)OCO5)OCO3 : LOW
Cc1ccc(C(=O)Nc2ccc(Oc3cc4cnn(C)c4cc3-c3cn[nH]c3)c(F)c2)c(=O)n1-c1ccc(F)cc1 : MID
Clc1cc(Cl)c(OCC#CI)cc1Cl : HIGH

stdin: Lab note: which band did `Cc1cnc(Nc2ccc(OCCN3CCCC3)cc2)nc1Nc1cccc(S(=O)(=O)NC(C)(C)C)c1` land in?
stdout: LOW

stdin: Lab note: which band did `O=C(/C=C\n1cnc(-c2cc(C(F)(F)F)cc(C(F)(F)F)c2)n1)NNc1cnccn1` land in?
stdout: MID

stdin: Lab note: which band did C[C@]12CC[C@@H]3c4ccc(O)cc4C[C@@H](CCCCCCCCC[S+]([O-])CCCC(F)(F)C(F)(F)F)[C@H]3[C@@H]1CC[C@@H]2O (some centres undefined) land in?
stdout: HIGH
